- study.target: Human recombinant GST-PI3Kγ (Homo sapiens)
- Sequence (P48736 whole entry): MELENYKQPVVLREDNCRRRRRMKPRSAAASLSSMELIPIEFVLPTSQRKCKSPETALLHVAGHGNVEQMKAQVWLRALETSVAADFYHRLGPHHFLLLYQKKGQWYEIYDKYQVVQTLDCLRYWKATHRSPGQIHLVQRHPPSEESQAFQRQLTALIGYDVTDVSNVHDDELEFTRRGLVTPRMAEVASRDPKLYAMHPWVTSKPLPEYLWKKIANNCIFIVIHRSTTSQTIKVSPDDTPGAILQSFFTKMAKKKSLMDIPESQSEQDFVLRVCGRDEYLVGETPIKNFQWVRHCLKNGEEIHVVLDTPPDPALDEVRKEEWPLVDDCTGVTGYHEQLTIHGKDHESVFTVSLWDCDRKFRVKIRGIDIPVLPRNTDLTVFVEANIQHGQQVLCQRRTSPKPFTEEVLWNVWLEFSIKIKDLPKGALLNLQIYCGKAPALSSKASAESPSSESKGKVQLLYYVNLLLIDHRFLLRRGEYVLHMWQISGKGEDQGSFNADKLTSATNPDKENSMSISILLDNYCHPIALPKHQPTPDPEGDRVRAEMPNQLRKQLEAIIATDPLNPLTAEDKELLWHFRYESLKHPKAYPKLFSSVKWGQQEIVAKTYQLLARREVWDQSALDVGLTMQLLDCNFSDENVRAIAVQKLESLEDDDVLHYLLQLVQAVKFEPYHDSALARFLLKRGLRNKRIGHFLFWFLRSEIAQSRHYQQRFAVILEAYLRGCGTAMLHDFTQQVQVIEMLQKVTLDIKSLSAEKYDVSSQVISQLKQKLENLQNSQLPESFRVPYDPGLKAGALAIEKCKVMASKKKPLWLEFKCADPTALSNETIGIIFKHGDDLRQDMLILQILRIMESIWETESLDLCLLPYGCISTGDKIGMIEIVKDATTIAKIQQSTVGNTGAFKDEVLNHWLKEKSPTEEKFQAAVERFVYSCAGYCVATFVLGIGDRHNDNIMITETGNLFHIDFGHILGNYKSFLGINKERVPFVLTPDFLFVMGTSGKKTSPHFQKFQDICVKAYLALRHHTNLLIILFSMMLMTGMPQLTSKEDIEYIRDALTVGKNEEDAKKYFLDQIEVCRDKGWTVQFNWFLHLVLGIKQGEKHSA
- experiment.notes: High throughput PI3K lipid kinase assay (SPA, neomycin-coated beads)
reported.endpoint: IC50 (nM)
Record the value in nM, omitting the unit from your answer.

Solved cases below.
CC(=O)Nc1nc(C)c(-c2ccc(S(=O)(=O)N[C@@H](CO)C(=O)O)s2)s1 [Example 16]	373
CC(=O)Nc1nc(C)c(-c2ccc(S(=O)(=O)N(C)CCN(C)C)s2)s1 [Example 5]	20
C#CCNS(=O)(=O)c1ccc(-c2sc(NC(C)=O)nc2C)s1 [Example 1]	119
CC(=O)Nc1nc(C)c(-c2ccc(S(=O)(=O)N3CCN(C)CC3)s2)s1 [Example 8]	170
CC(=O)Nc1nc(C)c(-c2ccc(S(=O)(=O)NCCCN(C)C)s2)s1 [Example 10]	289

Quick one: IC50 for CC(=O)Nc1nc(C)c(-c2csc(S(=O)(=O)N3CCC(O)CC3)c2)s1 [Example 39] ?
14

One more compound: CC(=O)Nc1nc(C)c(-c2ccc(S(=O)(=O)NCC(O)CO)s2)s1 (stereo not drawn) [Example 17]
71

What about this compound? CC(=O)Nc1nc(C)c(-c2ccc(S(=O)(=O)N(C)C)s2)s1 [Example 18]
105

Now the same for CC(=O)Nc1nc(C)c(-c2ccc(S(=O)(=O)N3CCN(C(C)=O)CC3)s2)s1 [Example 2]
396

* * *

Catalogue of IC50 values
- Tested on: PI3K induced Akt/PKB phosphorylation in Raw 264-7 macrophages
- experiment.notes: Cell based ELISA of Akt/PKB phosphorylation in macrophages after Complement 5a stimulation
- test.context: Mus musculus, RAW264.7, 5 min, 50 nM Complement 5a for 5 minutes, read-out: Cell Assay (P-Akt, Elisa) IC50
Report the value in nM with no unit label.

Give the measured IC50 of CC(=O)Nc1nc(C)c(-c2ccc(S(=O)(=O)NCCCN(C)C)s2)s1 .
1290

Then this compound: C#CCNS(=O)(=O)c1ccc(-c2sc(NC(C)=O)nc2C)s1
660

Entry CC(=O)Nc1nc(C)c(-c2ccc(S(=O)(=O)NCCN3CCOCC3)s2)s1 please
850

Record: CC(=O)Nc1nc(C)c(-c2csc(S(=O)(=O)N3CCN(C)CC3)c2)s1
460

* * *

- System: PI3K induced Akt/PKB phosphorylation in Raw 264-7 macrophages
- experiment.notes: Cell based ELISA of Akt/PKB phosphorylation in macrophages after Complement 5a stimulation
- test.context: Mus musculus, RAW264.7, 5 min, 50 nM Complement 5a for 5 minutes, read-out: Cell Assay (P-Akt, Elisa) IC50
- Description: b) Cell Based ELISA to Monitor PI3K Inhibition: The efficacy of compounds of the invention in inhibiting the PI3K induced Akt/PKB phosphorylation may be tested in the following cell based assay. Measurement of Akt/PKB phosphorylation in macrophages after stimulation with Complement 5a: Raw 264: Raw 264-7 macrophages (cultured in DMEM-F12 medium containing 10% Fetal Calf serum and antibiotics) are plated at 20,000 cells/well in a 96 MTP 24 h before cell stimulation. […]
Here the recorded IC50 is given for each entry.
Provide the reading as a plain figure in nM.

Worked examples, 2 compounds total:
CC(=O)Nc1nc(C)c(-c2csc(S(=O)(=O)N3CCC(O)CC3)c2)s1 [Example 39]	50
CC(=O)Nc1nc(C)c(-c2csc(S(=O)(=O)N3CCCC(O)C3)c2)s1 (stereo not drawn) [Example 48]	150

// moving on: another record for IC50
Which IC50 is reported for this compound? CC(=O)Nc1nc(C)c(-c2csc(S(=O)(=O)NCCN(C)C)c2)s1 [Example 23]
480

Values were extracted from patent US8399497B2.
